- target-under-test: CaNbp2
- assay-text: SPOT peptide array binding signal intensity (averaged, normalized) (arbitrary units (background-subtracted, floor 0; scale differs between SH3 domains)); higher = stronger binding of the SH3 domain to the peptide
attribute-measured: SPOT peptide array binding signal intensity
Format: numeric value only, no unit, no commentary.

Take a look at these entries with their results.
{"binder": "QRKSLRRPTLSKPAV", "obs-value": 319}
{"binder": "GKFIPSRPAPKPPSS", "obs-value": 3600}

Which SPOT peptide array binding signal intensity value is on record for KRKRRLPVSEDTNTK ?
255

Tell me the measured SPOT peptide array binding signal intensity of DRIRMFIRFPKFLLE , please.
1050
